# Target Or System: T1, GFP-9S library array, motif 4 ND N98G;D124Q (synthetic construct, N98G;D124Q)
# T1 chain: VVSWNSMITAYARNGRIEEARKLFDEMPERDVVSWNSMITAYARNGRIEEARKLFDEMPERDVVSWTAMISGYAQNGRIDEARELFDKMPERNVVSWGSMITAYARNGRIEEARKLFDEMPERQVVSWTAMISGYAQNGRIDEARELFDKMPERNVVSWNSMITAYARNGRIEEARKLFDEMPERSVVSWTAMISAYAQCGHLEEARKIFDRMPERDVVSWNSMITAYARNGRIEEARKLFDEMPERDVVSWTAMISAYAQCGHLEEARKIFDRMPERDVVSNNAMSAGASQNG
# Assay Overview: high-throughput RNA pulldown from lysate on Ni-NTA beads; HRP: 50 mM Tris pH 8, 150 mM NaCl, 1 mM beta-mercaptoethanol, 50 ug/ml BSA, 3 ug/ml yeast RNA, 0.5% heparin; ITC and FP: Tris pH 8, 200 mM KCl, 5% glycerol; MST: 50 mM Tris pH 8, 200 mM NaCl, 1 mM DTT, BSA, heparin, 0.05% Tween 20
# Condition Summary: tags: N-terminal His-eGFP; label: 5' Cy5
Catalogue of Kd readings, one per entry.
Observation Type: Kd

• AUUACACGUGA (ssRNA) [Cy5-rpoA] = 0.0966 µM
• AUUAGACGUGA (ssRNA) [Cy5-rpoA-G] = 0.109 µM
